# experiment notes: Efflux ratio of apparent permeability from basolateral to apical side over apical to basolateral side in human Caco2 cells
# condition parameters: Caco-2
Mark satisfied for efflux ratio under 0.9, not satisfied if at or over.

1) COCC(C)n1cc(C(=O)C(=O)Nc2ccc(OC)nc2)c2ccccc21 (stereo not given) = not satisfied
2) COc1ncc(NC(=O)C(=O)c2cn(C(C)C)c3ccccc23)cn1 = not satisfied
3) COc1ccc(NC(=O)C(=O)c2cn(CC3CCCO3)c3ccccc23)cn1 (stereo not given) = satisfied
4) COc1ccc(NC(=O)C(=O)c2cn(C(C)C)c3ccccc23)cn1 = not satisfied

====

# measurement target: Tubulin (Sus scrofa) (UniProt P02554+P02550)
# experiment notes: Displacement of [3H]-vinblastine from biotinylated porcine tubulin after 15 mins by competitive binding assay
# Type: protein assay
Active and inactive are the calls of the source. The calls are words filed in the database; no cut-off is given here.
assay readout: Activity

1. COc1ccc(NC(=O)C(=O)c2cn(CC3CCCO3)c3ccccc23)cn1 (stereo not given) = Active
2. COc1ccc(NC(=O)C(=O)c2cc(C(C)C)n3ccccc23)cn1 = inactive
3. CCn1cc(C(=O)C(=O)Nc2ccc(OC)nc2)c2ccccc21 = Active
4. COCCn1cc(C(=O)C(=O)Nc2ccc(OC(C)C)nc2)c2ccccc21 = Active
5. COCCn1cc(C(=O)C(=O)Nc2ccc(OC)nc2)c2cccnc21 = inactive
6. COCC(C)(C)n1cc(C(=O)C(=O)Nc2ccc(OC)nc2)c2ccccc21 = Active
7. COCCn1cc(C(=O)C(=O)Nc2ccc(OC(F)(F)F)cc2)c2ccccc21 = Active
8. COCC(C)n1cc(C(=O)C(=O)Nc2ccc(OC)nc2)c2ccccc21 (stereo not given) = inactive
9. COc1ccc(NC(=O)C(=O)c2cn(C(C)C)c3ncccc23)cn1 = inactive
10. COc1ccc(NC(=O)C(=O)c2cn(C(C)C)c3ccccc23)cn1 = Active

====

# experiment notes: Solubility in 2% DMSO containing 50 mM potassium phosphate buffer solution pH 7.4 at 10 uM by dynamic light scattering method
# condition parameters: pH 7.4, 10 µM
assay readout: solubility

1. COCC(C)n1cc(C(=O)C(=O)Nc2ccc(OC)nc2)c2ccccc21 (stereo not drawn) = soluble
2. COCC(C)(C)n1cc(C(=O)C(=O)Nc2ccc(OC)nc2)c2ccccc21 = soluble
3. COc1ccc(NC(=O)C(=O)c2cc(C(C)C)n3ccccc23)cn1 = soluble
4. CCn1cc(C(=O)C(=O)Nc2ccc(OC)nc2)c2ccccc21 = soluble
5. COCCn1cc(C(=O)C(=O)Nc2ccc(OC(C)C)nc2)c2ccccc21 = soluble
6. COc1ccc(NC(=O)C(=O)c2cn(C(C)C)c3ccccc23)cn1 = soluble
7. COc1ccc(NC(=O)C(=O)c2cn(CC3CCCO3)c3ccccc23)cn1 (stereo not drawn) = soluble

====

# measurement target: Tubulin (Sus scrofa) (UniProt P02554+P02550)
# experiment notes: Displacement of [3H]-paclitaxel from biotinylated porcine tubulin after 25 mins by competitive binding assay
# Assay type: protein assay
Active and inactive are the calls of the source. No cut-off for these calls is given here.
Outcomes: T (active), F (inactive)

1. COCCn1cc(C(=O)C(=O)Nc2ccc(OC)nc2)c2cccnc21 = F
2. CC(=O)O[C@@]12CO[C@@H]1C[C@H](O)[C@@]1(C)C(=O)[C@H](O)C3=C(C)[C@@H](OC(=O)[C@H](O)[C@@H](NC(=O)OC(C)(C)C)c4ccccc4)C[C@@](O)([C@@H](OC(=O)c4ccccc4)[C@H]21)C3(C)C = T
3. COCC(C)n1cc(C(=O)C(=O)Nc2ccc(OC)nc2)c2ccccc21 (stereo not drawn) = F

====

# measurement target: Tubulin (Sus scrofa) (UniProt P02554+P02550)
# experiment notes: Displacement of [3H]-paclitaxel from biotinylated porcine tubulin after 25 mins by competitive binding assay
# Type: protein assay
Active and inactive are the calls of the source. No cut-off for these calls is given here.
Possible outcomes: t (active), f (inactive)

1) COCCn1cc(C(=O)C(=O)Nc2ccc(OC(F)(F)F)cc2)c2ccccc21 = f
2) COCC(C)(C)n1cc(C(=O)C(=O)Nc2ccc(OC)nc2)c2ccccc21 = f
3) COCCn1cc(C(=O)C(=O)Nc2ccc(OC(C)C)nc2)c2ccccc21 = f
4) CCn1cc(C(=O)C(=O)Nc2ccc(OC)nc2)c2ccccc21 = f
5) COc1ccc(NC(=O)C(=O)c2cc(C(C)C)n3ccccc23)cn1 = f
6) COc1ccc(NC(=O)C(=O)c2cn(C(C)C)c3ncccc23)cn1 = f
7) CC[C@]1(O)C[C@H]2CN(CCc3c([nH]c4ccccc34)[C@@](C(=O)OC)(c3cc4c(cc3OC)N(C=O)[C@H]3[C@@](O)(C(=O)OC)[C@H](OC(C)=O)[C@]5(CC)C=CCN6CC[C@]43[C@@H]65)C2)C1 = t
8) COc1ccc(NC(=O)C(=O)c2cn(CC3CCCO3)c3ccccc23)cn1 (centres undefined) = f
9) COc1ccc(NC(=O)C(=O)c2cn(C(C)C)c3ccccc23)cn1 = f

====

# experiment notes: Solubility in 2% DMSO containing 50 mM potassium phosphate buffer solution at pH 7.4 by dynamic light scattering method
# condition parameters: 50 mM potassium phosphate buffer with 2% DMSO
solubility kinetic values, listed per item
assay readout: solubility kinetic

1. COc1ccc(NC(=O)C(=O)c2cn(CC3CCCO3)c3ccccc23)cn1 (stereo not drawn) = 10 µM
2. COc1ccc(NC(=O)C(=O)c2cn(CCC(=O)O)c3ccccc23)cn1 = > 200 µM
3. COCC(C)(C)n1cc(C(=O)C(=O)Nc2ccc(OC)nc2)c2ccccc21 = 10 µM
4. COc1ccc(NC(=O)C(=O)c2cn(C(C)(C)COCC(=O)O)c3ccccc23)cn1 = > 200 µM
5. COCCn1cc(C(=O)C(=O)Nc2ccc(OCC(=O)O)nc2)c2ccccc21 = > 200 µM
6. COc1ccc(NC(=O)C(=O)c2cn(C(C)C)c3ccccc23)cn1 = 20 µM
7. COCC(C)n1cc(C(=O)C(=O)Nc2ccc(OC)nc2)c2ccccc21 (stereo not drawn) = 40 µM
8. COc1ccc(NC(=O)C(=O)c2cc(C(C)C)n3ccccc23)cn1 = 10 µM

====

# half-life at 1 µM values compiled below
# experiment notes: Metabolic stability in CD-1 mouse liver microsomes assessed as half life at 1 uM preincubated for 5 mins before addition of NADPH by LC-MS/MS method
# Format: ADME
assay readout: half-life at 1 µM (min)

1. COc1ccc(NC(=O)C(=O)c2cn(CCOC(C)C)c3ccccc23)cn1 = 23
2. COCC(C)n1cc(C(=O)C(=O)Nc2ccc(OC)nc2)c2ccccc21 (stereo not drawn) = 16
3. COc1ccc(NC(=O)C(=O)c2cn(CC3CCCO3)c3ccccc23)cn1 (stereo not drawn) = 34
